Study target: Tau P301L (Homo sapiens, UniProt P10636, P618L)
Construct: expressed in transfected cells
Sequence (P10636 1-441 isoform P10636-8 P301L): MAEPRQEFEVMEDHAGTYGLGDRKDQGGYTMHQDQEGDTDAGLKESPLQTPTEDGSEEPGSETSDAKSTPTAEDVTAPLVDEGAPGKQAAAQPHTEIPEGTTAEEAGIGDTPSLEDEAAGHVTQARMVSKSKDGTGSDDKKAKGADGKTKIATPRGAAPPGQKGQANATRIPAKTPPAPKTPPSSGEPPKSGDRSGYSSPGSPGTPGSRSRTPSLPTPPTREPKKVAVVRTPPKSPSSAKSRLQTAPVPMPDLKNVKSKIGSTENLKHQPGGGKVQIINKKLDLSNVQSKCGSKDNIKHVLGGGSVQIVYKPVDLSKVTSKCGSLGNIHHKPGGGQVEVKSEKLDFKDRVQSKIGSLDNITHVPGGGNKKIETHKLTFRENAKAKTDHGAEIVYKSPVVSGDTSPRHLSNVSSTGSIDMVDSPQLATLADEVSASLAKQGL
Protocol description: In vitro tau degradation assay in CHOK1 Tau P301L cells (sarkosyl insoluble tau, WES)
Format: cell-based
Setup conditions: CHO-K1; remaining tau protein in sarkosyl insoluble pellet; CHOK1 Tau P301L cells treated 48 hours with test compound at 1 μM, doxycycline removed for the last 24 hours; relative to DMSO doxycycline control; read-out: Tau Protein Degradation effect at 1 μM
# remaining activity at 1 µM values compiled below

In the examples that follow, each entry is paired with its recorded remaining activity at 1 µM.
Compound | Study target | remaining activity at 1 µM
Cn1c2ccncc2c2ccc(C#CC3CCN(CCN4CCN(c5ccc6c(c5)C(=O)N(C5CCC(=O)NC5=O)C6=O)CC4)CC3)cc21 (stereo not drawn) | Tau P301L (Homo sapiens, UniProt P10636, P618L) | < 50%
Cc1ncsc1-c1ccc([C@H](C)NC(=O)[C@@H]2C[C@@H](O)CN2C(=O)[C@@H](c2cc(OCCCCCN3CCC(O[C@H]4C[C@H](Oc5ccc(-c6ccc7c8cnccc8n(C)c7c6)cn5)C4)CC3)no2)C(C)C)cc1 | Tau P301L (Homo sapiens, UniProt P10636, P618L) | > 50%

Now look at this one.
Item: O=C1CCC(N2C(=O)c3ccc(N4CCN(C(=O)CC5CCN(c6ncc(-c7ccc8c9cnccc9n(C(F)F)c8c7)cc6F)CC5)CC4)cc3C2=O)C(=O)N1 (stereo not drawn) | remaining activity at 1 µM: < 50%
